test system: TH positive cells in primary ventral mesencephalic cell cultures; assay: MPP+ dose response on TH positive cell number in primary ventral mesencephalic cell cultures; assay type: cell-based, rat; settings: 24 hrs exposure, 0.1-10 μM MPP+, n=3; read-out: EC50, TH positive (dopaminergic) cell death

compound	EC50
C[n+]1ccc(-c2ccccc2)cc1 [MPP+]	3.08 µM
